# assay: Metabolic stability in human liver microsomes assessed as parent compound remaining at 0.5 uM incubated for 10 mins in presence of NADPH by LC-MS/MS analysis
# Assay type: ADME, Microsome
# experimental.context: read-out: Stability
reported.endpoint: remaining at 10 min, 0.5 µM (%)
One number for each entry, in %.

Look over these answered cases.
CC(=O)Nc1cc(-c2ccc(OC[C@@H](N)CC(C)C)c(F)c2)ccn1
90
COC(=O)Nc1cc(-c2cnc(OC[C@@](C)(N)CC(C)C)cc2C)ccn1
98
Cc1cc(-c2cc(C(F)(F)F)c(OC[C@@](C)(N)CC(C)C)cn2)ccn1
90

Could you report remaining at 10 min, 0.5 µM for every entry in the following list?
1. CC(=O)Nc1cc(-c2cc(F)c(OC[C@@H](N)CC(C)C)cc2F)ccn1
2. CC(=O)Nc1cc(-c2ccc(OC[C@@H](N)CC(C)C)c(C(F)(F)F)c2)ccn1
3. COC(=O)Nc1cc(-c2ccc(OC[C@@](C)(N)CC(C)C)c(Cl)n2)ccn1
4. CC(C)C[C@](C)(N)COc1cnc(-c2ccnc(C(F)F)c2)cc1C(F)F
5. COC(=O)Nc1cc(-c2ccc(OC[C@@](C)(N)CC(C)C)c(C(F)(F)F)c2)ccn1
6. COC(=O)Nc1cc(-c2ccc(OC[C@@](C)(N)CC(C)C)c(CO)c2)ccn1
7. Cc1cc(-c2cc(C(F)F)c(OC[C@@](C)(N)CC(C)C)cn2)ccn1

Reply text:
[78, 91, 93, 89, 80, 91, 84]

Could you report remaining at 10 min, 0.5 µM for every entry in the following list?
1. CC(=O)Nc1cc(-c2ccc(OC[C@@H](N)CC(C)C)c(C)c2)ccn1
2. CC(=O)Nc1cc(-c2ccc(OC[C@@H](N)CC(C)C)c(OC(F)(F)F)c2)ccn1
3. COC(=O)Nc1cc(-c2cc(C(F)(F)F)c(OC[C@@](C)(N)CC(C)C)cn2)ccn1
4. COC(=O)Nc1cc(-c2cnc(OC[C@@](C)(N)CC(C)C)c(OC)c2)ccn1 (racemic)
5. CC(=O)Nc1cc(-c2cc(F)c(OC[C@@H](N)CC(C)C)c(Cl)c2)ccn1
6. COC(=O)Nc1cc(-c2cc(C(F)F)c(OC[C@@](C)(N)CC(C)C)cn2)ccn1
7. CC(C)C[C@](C)(N)COc1cnc(-c2ccnc(Cl)c2)cc1Cl
8. CC(=O)Nc1cc(-c2cc(F)c(OC[C@@H](N)CC(C)C)c(F)c2)ccn1

Reply text:
1. 91
2. 91
3. 80
4. 86
5. 94
6. 79
7. 86
8. 90

Could you report remaining at 10 min, 0.5 µM for every entry in the following list?
1. COC(=O)Nc1cc(-c2ccc(OC[C@@H](N)CC(C)C)c(F)c2)ccn1
2. COC(=O)Nc1cc(-c2cc(Cl)c(OC[C@@](C)(N)CC(C)C)cn2)ccn1
3. COC(=O)Nc1cc(-c2ccc(OC[C@@H](N)CC(C)C)c(-c3ccno3)c2)ccn1
4. COC(=O)Nc1cc(-c2ccc(OC[C@@](C)(N)CC(C)C)c(C(F)F)n2)ccn1
5. COC(=O)Nc1cc(-c2cnc(OC[C@@](C)(N)CC(C)C)c(C#N)c2)ccn1

Reply text:
[92, 96, 91, 77, 95]
